# assay notes: folding enthalpy; higher = less favourable; fluorescence melt of hairpins on a sequencing array, two-state fit
# condition info: sodium 0.088 M
Note to self: class = bucket of folding enthalpy, per small value (below -40 kcal/mol), mid value (-40 kcal/mol to below -20 kcal/mol), large value (-20 kcal/mol or more)

polymer sequence	group
GTTGGCGAAAGCCGAAC ((((((....))).)))	large value
GATCCAGGTCTGGATC ((((((....))))))	mid value

Turning to the following sequence.
Hi, small favor: classify GCGGCAGTCCGC ((((....)))) by its folding enthalpy when you get a moment.
mid value

====

# assay notes: folding enthalpy; higher = less favourable; fluorescence melt of hairpins on a sequencing array, two-state fit
# condition info: sodium 0.088 M
So basically: folding enthalpy at -30 kcal/mol or higher? That is fulfilled. Lower than -30 kcal/mol? That is not fulfilled.

polymer sequence	group
GTTCGCGGAAACGCGGAC ((.((((....)))).))	fulfilled

Does the sequence GCAAGGCGAAAGCCCGGC ((..(((....)))..)) have recorded folding enthalpy that is -30 kcal/mol or more?
fulfilled

Say whether GGTAGAACGAAAGTTACC (((..(((....)))))) shows folding enthalpy of -30 kcal/mol or more.
fulfilled

State whether the measured folding enthalpy reaches -30 kcal/mol, counting equality as reaching it, for GGATACGAAAGTACTTCC ((((((....)))..)))
fulfilled

====

# assay notes: melting temperature; fluorescence melt of hairpins on a sequencing array, two-state fit, raised by 9.35 °C to match UV melts
# condition info: sodium 0.088 M
Listed below: Tm values for each entry.

polymer sequence	Tm
GATCACTGAGGTGATC ((((((....))))))	59.4 °C
GCTTGGCGAAAGCAATGC ((.(.((....)).).))	38.4 °C
GGCAACCGAAAGGTAGCC (((.(((....))).)))	62.4 °C
GGTCAGGGAAACTTGGCC ((.((.(....).)).))	38.2 °C
GATGAAGGAAACTTCGTC ((.((((....)))).))	42.4 °C

What does the record list as Tm for GACCCAACGAAAGTTGTC (((..(((....)))))) ?
29 °C

====

# assay notes: melting temperature; fluorescence melt of hairpins on a sequencing array, two-state fit, raised by 9.35 °C to match UV melts
# condition info: sodium 0.088 M
Mark label 1 for Tm under 50 °C, label 0 if at or over.

Consider GGGGTTGGAAACAACCTC (.(((((....))))).) . Does its Tm lie strictly below 50 °C?
label 0

Tm strictly < 50 °C for this sequence? GCTAGGCGAAAGCGTCGC ((.(.((....)).).))
label 1

Is Tm of GCCCCCGAAAGGGAAGGC ((((((....)))..))) strictly below 50 °C?
label 0

Does this sequence meet the criterion Tm < 50 °C? GATCGAAGTTTCGATC ((((((....))))))
label 0

Take the sequence GGTCCGTCGAAAGACACC (((..(((....)))))) and say whether its Tm is less than 50 °C.
label 1

Threshold test, Tm < 50 °C: GATCTAGCATTAGATC ((((((....))))))
label 1

Input GGACCTGGAAACAGGTCC (((((((....))))))) ; condition: Tm strictly below 50 °C. Does it hold?
label 0
